test: Acute toxicity: mortality in mice after a single administration of increasing doses; conditions: mouse, in vivo, after one hour
Property Label: LD50 at 1 h (mg/kg)
One number for each entry, in mg/kg.

Form field LD50 at 1 h, entry `S=C(NC1CCCCC1)N1CCC(c2c[nH]cn2)CC1` : 100

###

molecular target: H3 self-receptors of rat brain (Rattus norvegicus); assay: cell-based
pKi: −log10 of the molar value.
# cutoff 7 applies to pKi; >= gives fulfilled, < gives not fulfilled

Observe how each entry below is paired with its result.
Compound | Answer Label
S=C(NC12CC3CC(CC(C3)C1)C2)N1CCC(c2c[nH]cn2)CC1 [Example 7] | fulfilled
S=C(NC1CCCCC1)N1CCC(c2c[nH]cn2)CC1 [Example 1] | fulfilled
Cc1cccc(NC(=O)N2CCC(c3c[nH]cn3)CC2)c1 [Example 11] | fulfilled
O=C(Nc1cccc(F)c1)N1CCC(c2c[nH]cn2)CC1 [Example 10] | fulfilled

Read the next record carefully.
Does O=C(Nc1ccccc1)N1CCC(c2c[nH]cn2)CC1 [Example 9] have a reported pKi of at least 7?
not fulfilled

###

target: H3 self-receptors of rat brain (Rattus norvegicus, UniProt Q9QYN8); assay: Antagonism of histamine stimulation of the H3 receptors controlling the release of (3H)histamine induced by depolarization of sections of rat brain; conditions: read-out: Apparent dissociation constant (Ki) as antagonist of histamine on the H3 self-receptors of rat brain
Sequence (Q9QYN8 whole entry): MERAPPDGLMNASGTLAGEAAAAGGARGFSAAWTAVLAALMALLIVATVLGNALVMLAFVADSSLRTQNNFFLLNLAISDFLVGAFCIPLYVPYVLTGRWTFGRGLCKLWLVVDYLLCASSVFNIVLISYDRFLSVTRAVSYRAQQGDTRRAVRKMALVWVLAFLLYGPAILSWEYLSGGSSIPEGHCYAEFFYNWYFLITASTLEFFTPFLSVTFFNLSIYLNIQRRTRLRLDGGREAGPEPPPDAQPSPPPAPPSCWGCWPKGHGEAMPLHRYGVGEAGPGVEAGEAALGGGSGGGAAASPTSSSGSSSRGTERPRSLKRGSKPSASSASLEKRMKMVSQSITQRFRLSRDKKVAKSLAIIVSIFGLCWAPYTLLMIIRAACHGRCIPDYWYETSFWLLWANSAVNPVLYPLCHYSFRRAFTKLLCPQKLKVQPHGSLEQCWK
Property Label: Ki (nM)
One number for each entry, in nM.

Molecule | Unit Name | Ki
CC(NC(=N)N1CCC(c2c[nH]cn2)CC1)C1CC1 (centres unmarked) | nM | 12

API: the following record is the query input.
Form field Ki, entry S=C(NC1CCCCC1)N1CCCC(c2c[nH]cn2)C1 (centres unmarked) : 40

###

target: H3 self-receptors of rat brain (Rattus norvegicus, UniProt Q9QYN8); experiment: Antagonism of histamine stimulation of the H3 receptors controlling the release of (3H)histamine induced by depolarization of sections of rat brain
Property Label: pKi
Answers are plain numbers, as −log10 of the molar value.

Compound | Target System | pKi
c1ccc(OCCN2CCC(c3c[nH]cn3)CC2)cc1 [Example 40] | H3 self-receptors of rat brain (Rattus norvegicus, UniProt Q9QYN8) | 7.17
O=C(c1ccc(N2CCC(c3c[nH]cn3)CC2)cc1)C1CC1 [Example 4] | H3 self-receptors of rat brain (Rattus norvegicus, UniProt Q9QYN8) | 7.43
O=C(NC1CCCCC1)N1CCC(c2cn(C(=O)NC3CCCCC3)cn2)CC1 [Example 2] | H3 self-receptors of rat brain (Rattus norvegicus, UniProt Q9QYN8) | 7.59

Form field pKi, entry O=C(NC1CCCCC1)N1CCC(c2c[nH]cn2)CC1 [Example 3] : 7.39

###

molecular target: H3 self-receptors of rat brain (Rattus norvegicus, UniProt Q9QYN8); experiment: cell-based
Property Label: Ki (nM)
Numbers only, in nM.

Compound | Reported
CC(NC(=O)N1CCC(c2c[nH]cn2)CC1)c1ccccc1 (stereo not shown) | 10
Cc1[nH]cnc1C1CCN(CCCn2c(=O)[nH]c3ccccc32)CC1 | 500
CC(NC(=O)N1CCC(c2cn(C(=O)NC(C)c3ccccc3)cn2)CC1)c1ccccc1 (stereo not shown) | 22

API: the following record is the query input.
Form field Ki, entry `Cc1cccc(NC(=O)N2CCC(c3cn(C(=O)Nc4cccc(C)c4)cn3)CC2)c1` : 84

Hello, the source for this data is patent US4707487A, in case you need it.
